- System: UniProtKB P30559
- Sequence (P30559 whole entry): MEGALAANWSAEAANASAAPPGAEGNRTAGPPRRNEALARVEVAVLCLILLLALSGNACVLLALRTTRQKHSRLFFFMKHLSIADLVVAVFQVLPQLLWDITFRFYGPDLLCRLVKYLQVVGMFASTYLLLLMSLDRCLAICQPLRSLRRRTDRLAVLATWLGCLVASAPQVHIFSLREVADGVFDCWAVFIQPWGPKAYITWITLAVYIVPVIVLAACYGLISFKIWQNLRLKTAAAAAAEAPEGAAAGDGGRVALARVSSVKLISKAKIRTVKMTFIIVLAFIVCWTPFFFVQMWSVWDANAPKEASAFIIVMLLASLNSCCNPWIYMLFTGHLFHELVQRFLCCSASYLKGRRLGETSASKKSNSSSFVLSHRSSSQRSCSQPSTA
- Experimental Protocol: Calcium flux assay (FLIPR) in CHO cells expressing human OTR
- Cond: agonist mode, CHO cells, calcium flux FLIPR; read-out: hOT EC50
*1 amine or outer side, *2 acyl side, *3 side chain or, on linkers, in order; H or OH if unused. Where a SMILES comes first, the peptide text is derived from it. Bridges are numbered along the chain shown (N, C = ends). [ ]: non-standard residue; d: D form. Hcy(O2-CH2CH2CO) = O=C([C@H](CCS(=O)(=O)CCC(=O)[*:3])N[*:1])[*:2]; αMeL = CC(C)C[C@](C)(N)C(=O)O; NcPrGly = O=C(O)CNC1CC1
Recorded Metric: pEC50
Notebook: values listed as pEC50 are -log10 of the concentration (mol/L).

// below: answered compounds
CC[C@H](C)[C@@H]1NC(=O)[C@H](Cc2ccc(O)cc2)NC(=O)CCS(=O)(=O)CC[C@@H](C(=O)N(CC(=O)N[C@@H](CC(C)C)C(=O)NCC(N)=O)C2CC2)NC(=O)[C@H](CC(N)=O)NC(=O)[C@H](CCC(N)=O)NC1=O [Example 27] (HELM PEPTIDE1{Y.I.Q.N.[O=C([C@H](CCS(=O)(=O)CCC(=O)[*:3])N[*:1])[*:2]].[O=C(CN(C1CC1)[*:1])[*:2]].L.G.[am]}$PEPTIDE1,PEPTIDE1,1:R1-5:R3$$$V2.0) ... 9.30
CC[C@H](C)[C@@H]1NC(=O)[C@H](Cc2ccc(O)cc2)NC(=O)CCS(=O)(=O)CC[C@@H](C(=O)N2CCC[C@H]2C(=O)N[C@@H](CC(C)C)C(=O)NCC(N)=O)NC(=O)[C@H](CC(N)=O)NC(=O)[C@H](CCC(N)=O)NC1=O [Example 1] (HELM PEPTIDE1{Y.I.Q.N.[O=C([C@H](CCS(=O)(=O)CCC(=O)[*:3])N[*:1])[*:2]].P.L.G.[am]}$PEPTIDE1,PEPTIDE1,1:R1-5:R3$$$V2.0) ... 9.10
CC[C@H](C)[C@@H]1NC(=O)[C@H](Cc2ccc(O)cc2)NC(=O)CCS(=O)(=O)CC[C@@H](C(=O)N(CC(=O)NC(C)(C)C(=O)NCC(N)=O)C2CC2)NC(=O)[C@H](CC(N)=O)NC(=O)[C@H](CCC(N)=O)NC1=O [Example 30] (HELM PEPTIDE1{Y.I.Q.N.[O=C([C@H](CCS(=O)(=O)CCC(=O)[*:3])N[*:1])[*:2]].[O=C(CN(C1CC1)[*:1])[*:2]].[Aib].G.[am]}$PEPTIDE1,PEPTIDE1,1:R1-5:R3$$$V2.0) ... 9.00

Provide pEC50, system UniProtKB P30559, entry CC[C@H](C)[C@@H]1NC(=O)[C@H](Cc2ccc(O)cc2)NC(=O)CCS(=O)(=O)CC[C@@H](C(=O)N(CC(=O)N[C@H](C(=O)NCC(N)=O)C(C)C)C2CC2)NC(=O)[C@H](CC(N)=O)NC(=O)[C@H](CCC(N)=O)NC1=O [Example 29] (HELM PEPTIDE1{Y.I.Q.N.[O=C([C@H](CCS(=O)(=O)CCC(=O)[*:3])N[*:1])[*:2]].[O=C(CN(C1CC1)[*:1])[*:2]].V.G.[am]}$PEPTIDE1,PEPTIDE1,1:R1-5:R3$$$V2.0)
9.30

Tell me pEC50 of CC[C@H](C)[C@@H]1NC(=O)[C@H](Cc2ccc(O)cc2)NC(=O)CCS(=O)(=O)CC[C@@H](C(=O)N(CC(=O)N[C@@](C)(CC(C)C)C(=O)NCC(N)=O)C2CC2)NC(=O)[C@H](CC(N)=O)NC(=O)[C@H](CCC(N)=O)NC1=O [Example 28] (YIQN[Hcy(O2-CH2CH2CO)][NcPrGly][αMeL]G-NH2; lactam N-5) when tested on UniProtKB P30559.
9.15

Send back UniProtKB P30559 pEC50 of CC[C@H](C)[C@@H]1NC(=O)[C@H](Cc2ccc(O)cc2)NC(=O)CCS(=O)(=O)CC[C@@H](C(=O)N(C)CC(=O)N[C@@H](Cc2ccccc2)C(=O)NCC(N)=O)NC(=O)[C@H](CC(N)=O)NC(=O)[C@H](CCC(N)=O)NC1=O [Example 16] (HELM PEPTIDE1{Y.I.Q.N.[O=C([C@H](CCS(=O)(=O)CCC(=O)[*:3])N[*:1])[*:2]].[Sar].F.G.[am]}$PEPTIDE1,PEPTIDE1,1:R1-5:R3$$$V2.0) only.
8.25

Data credit: patent US20170081368A1
